# Experiment summary: Stability tests of analytes in rat plasma QC samples
# Assay type: in vitro ADME
# Recorded conditions: rat plasma, nominal conc. 20 nM
Assay readout: Three freeze-thaw cycles (-80 °C ↔ 23 °C), RE (%)
Dear colleague, please return just the value in %, with no unit written.

Molecule: CC(C)=CCC[C@](C)(O[C@@H]1O[C@H](CO[C@@H]2OC[C@H](O)[C@H](O)[C@H]2O)[C@@H](O)[C@H](O)[C@H]1O)[C@H]1CC[C@]2(C)[C@@H]1[C@H](O)C[C@@H]1[C@@]3(C)CC[C@H](O[C@@H]4O[C@H](CO)[C@@H](O)[C@H](O)[C@H]4O[C@@H]4O[C@H](CO)[C@@H](O)[C@H](O)[C@H]4O)C(C)(C)[C@@H]3CC[C@]12C [Compound D4, Ginsenoside Rb2]
Recorded number: 11.32

Kindly review the next molecule as well.
Which Three freeze-thaw cycles (-80 °C ↔ 23 °C), RE is listed for CC(C)=CCC[C@](C)(O)[C@H]1CC[C@]2(C)[C@@H]1[C@H](O)C[C@@H]1[C@@]3(C)CC[C@H](O)C(C)(C)[C@@H]3[C@@H](O[C@@H]3O[C@H](CO)[C@@H](O)[C@H](O)[C@H]3O)C[C@]12C [Compound C1, Ginsenoside Rh1] ?
-13.10

---

# Experiment summary: Stability tests of analytes in rat plasma QC samples
# Type: in vitro ADME
# Recorded conditions: rat plasma, nominal conc. 100 nM
Reported Three freeze-thaw cycles (-80 °C ↔ 23 °C), Mean±SD by item:
Write it as a number; the unit nM goes unstated.

Compound: O=C1CCC[C@@H]2[C@H]3CCCN4CCC[C@@H](CN12)[C@@H]34
Recorded number: 104.44

Turning now to a further record.
What does the record list as Three freeze-thaw cycles (-80 °C ↔ 23 °C), Mean±SD for O=C1C=CC[C@@H]2[C@H]3CCC[N+]4([O-])CCC[C@@H](CN12)[C@@H]34 (some centres unmarked) ?
103.40

---

# Experiment summary: Stability tests of analytes in rat plasma QC samples
# Format: in vitro ADME
# Recorded conditions: rat plasma, nominal conc. 400 nM
Assay readout: Short-term stability at room temperature for 6 h, Mean±SD

Some solved cases for reference:
Compound: CC(C)=CCC[C@](C)(O)[C@H]1CC[C@]2(C)[C@@H]1[C@H](O)C[C@@H]1[C@@]3(C)CC[C@H](O)C(C)(C)[C@@H]3[C@@H](O[C@@H]3O[C@H](CO)[C@@H](O)[C@H](O)[C@H]3O[C@@H]3O[C@H](CO)[C@@H](O)[C@H](O)[C@H]3O)C[C@]12C [Compound C7, Ginsenoside Rf]
Result: 357.16 ± 4.75 nM

Compound: CC(C)=CCC[C@](C)(O[C@@H]1O[C@H](CO[C@@H]2O[C@H](CO)[C@@H](O)[C@H](O)[C@H]2O)[C@@H](O)[C@H](O)[C@H]1O)[C@H]1CC[C@]2(C)[C@@H]1[C@H](O)C[C@@H]1[C@@]3(C)CC[C@H](O[C@@H]4O[C@H](CO)[C@@H](O)[C@H](O)[C@H]4O[C@@H]4O[C@H](CO)[C@@H](O)[C@H](O)[C@H]4O)C(C)(C)[C@@H]3CC[C@]12C [Compound D5, Ginsenoside Rb1]
Result: 388.96 ± 18.81 nM

Compound: CC(C)(O)[C@@H]1CC[C@](C)([C@H]2[C@@H](O)C[C@@]3(C)[C@@H]4C[C@H](O)[C@H]5C(C)(C)[C@@H](O[C@@H]6OC[C@@H](O)[C@H](O)[C@H]6O[C@@H]6O[C@H](CO)[C@@H](O)[C@H](O)[C@H]6O)CC[C@@]56C[C@@]46CC[C@]23C)O1 [Compound B3, Astragaloside III]
Result: 348.69 ± 3.47 nM

Compound: CC(C)=CCC[C@](C)(O)[C@H]1CC[C@]2(C)[C@@H]1[C@H](O)C[C@@H]1[C@@]3(C)CC[C@H](O)C(C)(C)[C@@H]3[C@@H](O[C@@H]3O[C@H](CO)[C@@H](O)[C@H](O)[C@H]3O[C@@H]3O[C@@H](C)[C@H](O)[C@@H](O)[C@H]3O)C[C@]12C [Compound C5, Ginsenoside Rg2]
Result: 361.60 ± 11.46 nM

Compound: CC(C)(O)[C@@H]1CC[C@](C)([C@H]2[C@@H](O)C[C@@]3(C)[C@@H]4C[C@H](O[C@@H]5O[C@H](CO)[C@@H](O)[C@H](O)[C@H]5O)[C@H]5C(C)(C)[C@@H](O[C@@H]6OC[C@@H](O)[C@H](O)[C@H]6O)CC[C@@]56C[C@@]46CC[C@]23C)O1 [Compound B2, Astragaloside IV]
Result: 361.42 ± 15.40 nM

Need Short-term stability at room temperature for 6 h, Mean±SD, item CC(C)=CCC[C@](C)(O[C@@H]1O[C@H](CO)[C@@H](O)[C@H](O)[C@H]1O)[C@H]1CC[C@]2(C)[C@@H]1[C@H](O)C[C@@H]1[C@@]3(C)CC[C@H](O)C(C)(C)[C@@H]3[C@@H](O[C@@H]3O[C@H](CO)[C@@H](O)[C@H](O)[C@H]3O[C@@H]3OC[C@@H](O)[C@H](O)[C@H]3O)C[C@]12C [Compound C8, Notoginsenoside R1]
357.29 ± 9.94 nM

What value of measured Short-term stability at room temperature for 6 h, Mean±SD is listed for CC(C)=CCC[C@](C)(O[C@@H]1O[C@H](CO)[C@@H](O)[C@H](O)[C@H]1O)[C@H]1CC[C@]2(C)[C@@H]1[C@H](O)C[C@@H]1[C@@]3(C)CC[C@H](O[C@@H]4O[C@H](CO)[C@@H](O)[C@H](O)[C@H]4O[C@@H]4O[C@H](CO)[C@@H](O)[C@H](O)[C@H]4O)C(C)(C)[C@@H]3CC[C@]12C [Compound D2, Ginsenoside Rd] ?
362.78 ± 5.91 nM

I would be grateful if you could share the reported Short-term stability at room temperature for 6 h, Mean±SD for O=C1C=CC[C@@H]2[C@H]3CCC[N+]4([O-])CCC[C@@H](CN12)[C@@H]34 (stereo partly drawn) [Compound A2, Oxysophocarpine] .
439.31 ± 14.14 nM

Field request: Short-term stability at room temperature for 6 h, Mean±SD | item: CC(C)=CCC[C@](C)(O[C@@H]1O[C@H](CO[C@@H]2OC[C@H](O)[C@H](O)[C@H]2O)[C@@H](O)[C@H](O)[C@H]1O)[C@H]1CC[C@]2(C)[C@@H]1[C@H](O)C[C@@H]1[C@@]3(C)CC[C@H](O[C@@H]4O[C@H](CO)[C@@H](O)[C@H](O)[C@H]4O[C@@H]4O[C@H](CO)[C@@H](O)[C@H](O)[C@H]4O)C(C)(C)[C@@H]3CC[C@]12C [Compound D4, Ginsenoside Rb2]
352.24 ± 2.93 nM

What value of measured Short-term stability at room temperature for 6 h, Mean±SD is listed for O=C1CCC[C@@H]2[C@H]3CCCN4CCC[C@@H](CN12)[C@@H]34 [Compound A1, Matrine] ?
420.24 ± 21.99 nM

Reported Short-term stability at room temperature for 6 h, Mean±SD for CC(C)=CCC[C@](C)(O[C@@H]1O[C@H](CO[C@@H]2O[C@@H](CO)[C@H](O)[C@H]2O)[C@@H](O)[C@H](O)[C@H]1O)[C@H]1CC[C@]2(C)[C@@H]1[C@H](O)C[C@@H]1[C@@]3(C)CC[C@H](O[C@@H]4O[C@H](CO)[C@@H](O)[C@H](O)[C@H]4O[C@@H]4O[C@H](CO)[C@@H](O)[C@H](O)[C@H]4O)C(C)(C)[C@@H]3CC[C@]12C [Compound D3, Ginsenoside Rc] : what is it?
366.80 ± 3.85 nM

What Short-term stability at room temperature for 6 h, Mean±SD value was documented for this compound, CC(C)=CCC[C@](C)(O)[C@H]1CC[C@]2(C)[C@@H]1[C@H](O)C[C@@H]1[C@@]3(C)CC[C@H](O)C(C)(C)[C@@H]3[C@@H](O[C@@H]3O[C@H](CO)[C@@H](O)[C@H](O)[C@H]3O)C[C@]12C [Compound C1, Ginsenoside Rh1] ?
376.44 ± 26.61 nM

---

# Experiment summary: Stability tests of analytes in rat plasma QC samples
# Assay type: in vitro ADME
# Recorded conditions: rat plasma, nominal conc. 100 nM
Assay readout: Three freeze-thaw cycles (-80 °C ↔ 23 °C), RE (%)
All answers are understood in %, so give the number only.

Answered cases to consult:
Compound: CC(C)=CCC[C@](C)(O[C@@H]1O[C@H](CO[C@@H]2O[C@@H](CO)[C@H](O)[C@H]2O)[C@@H](O)[C@H](O)[C@H]1O)[C@H]1CC[C@]2(C)[C@@H]1[C@H](O)C[C@@H]1[C@@]3(C)CC[C@H](O[C@@H]4O[C@H](CO)[C@@H](O)[C@H](O)[C@H]4O[C@@H]4O[C@H](CO)[C@@H](O)[C@H](O)[C@H]4O)C(C)(C)[C@@H]3CC[C@]12C [Compound D3, Ginsenoside Rc]
Recorded number: 11.88
--
Compound: CC(C)(O)[C@@H]1CC[C@](C)([C@H]2[C@@H](O)C[C@@]3(C)[C@@H]4C[C@H](O)[C@H]5C(C)(C)[C@@H](O[C@@H]6OC[C@@H](O)[C@H](O)[C@H]6O[C@@H]6O[C@H](CO)[C@@H](O)[C@H](O)[C@H]6O)CC[C@@]56C[C@@]46CC[C@]23C)O1 [Compound B3, Astragaloside III]
Recorded number: 9.29

For the compound shown here, CC(C)=CCC[C@](C)(O)[C@H]1CC[C@]2(C)[C@@H]1[C@H](O)C[C@@H]1[C@@]3(C)CC[C@H](O)C(C)(C)[C@@H]3[C@@H](O[C@@H]3O[C@H](CO)[C@@H](O)[C@H](O)[C@H]3O[C@@H]3O[C@H](CO)[C@@H](O)[C@H](O)[C@H]3O)C[C@]12C [Compound C7, Ginsenoside Rf] , give the reported Three freeze-thaw cycles (-80 °C ↔ 23 °C), RE.
-13.01

Field request: Three freeze-thaw cycles (-80 °C ↔ 23 °C), RE | item: O=C1CCC[C@@H]2[C@H]3CCCN4CCC[C@@H](CN12)[C@@H]34
14.16

Could you tell me which Three freeze-thaw cycles (-80 °C ↔ 23 °C), RE is on file for CC(C)=CCC[C@](C)(O)[C@H]1CC[C@]2(C)[C@@H]1[C@H](O)C[C@@H]1[C@@]3(C)CC[C@H](O)C(C)(C)[C@@H]3[C@@H](O[C@@H]3O[C@H](CO)[C@@H](O)[C@H](O)[C@H]3O)C[C@]12C [Compound C1, Ginsenoside Rh1] ?
-10.86

Could you tell me which Three freeze-thaw cycles (-80 °C ↔ 23 °C), RE is on file for CC(C)=CCC[C@](C)(O[C@@H]1O[C@H](CO)[C@@H](O)[C@H](O)[C@H]1O)[C@H]1CC[C@]2(C)[C@@H]1[C@H](O)C[C@@H]1[C@@]3(C)CC[C@H](O[C@@H]4O[C@H](CO)[C@@H](O)[C@H](O)[C@H]4O[C@@H]4O[C@H](CO)[C@@H](O)[C@H](O)[C@H]4O)C(C)(C)[C@@H]3CC[C@]12C [Compound D2, Ginsenoside Rd] ?
13.24

Could you tell me which Three freeze-thaw cycles (-80 °C ↔ 23 °C), RE is on file for CC(C)=CCC[C@](C)(O)[C@H]1CC[C@]2(C)[C@@H]1[C@H](O)C[C@@H]1[C@@]3(C)CC[C@H](O)C(C)(C)[C@@H]3[C@@H](O[C@@H]3O[C@H](CO)[C@@H](O)[C@H](O)[C@H]3O[C@@H]3O[C@@H](C)[C@H](O)[C@@H](O)[C@H]3O)C[C@]12C [Compound C5, Ginsenoside Rg2] ?
12.73
